- Study System: T1, 4H717-bH
- T1 chain: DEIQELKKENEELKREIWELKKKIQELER
- Assay Remarks: two-hybrid library CCNG1;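 also: natural log of median RNA to DNA barcode read ratio; higher means stronger binding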
Binary call on interaction score: 1 from -0.5 upward, 0 beneath that.

Reference set (5 entries):
>>> class_name("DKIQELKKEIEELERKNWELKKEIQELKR [4H2618-bH]")
1
>>> class_name("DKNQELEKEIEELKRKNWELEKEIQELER [4H3185-bH]")
0
>>> class_name("DEIQELKKENEELERKIWELKKKNQELER [4H687-bH]")
1
>>> class_name("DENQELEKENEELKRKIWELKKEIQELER [4H1257-bH]")
0
>>> class_name("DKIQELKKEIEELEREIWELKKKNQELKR [4H2576-bH]")
0

query: # check: interaction score of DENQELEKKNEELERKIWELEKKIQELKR [4H1446-bH] is greater than or equal to -0.5
result: 0

query: # check: interaction score of DKNQELKKKNEELERKIWELEKEIQELER [4H4001-bH] is greater than or equal to -0.5
result: 1

query: # check: interaction score of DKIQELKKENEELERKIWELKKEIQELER [4H2729-bH] is greater than or equal to -0.5
result: 1

query: # check: interaction score of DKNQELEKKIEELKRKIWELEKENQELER [4H3427-bH] is greater than or equal to -0.5
result: 1

query: # check: interaction score of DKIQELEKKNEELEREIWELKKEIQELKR [4H2442-bH] is greater than or equal to -0.5
result: 1
